- Test system: melanoma UACC-62
- Assay Overview: COMPARE screening (NCI human cancer cell line screen), cytotoxicity GI50
- Format: cell-based
- Condition Info: melanoma UACC-62; concentration corresponding to 50% growth inhibition; read-out: cytotoxicity (GI50 in μM) melanoma UACC-62
Quantity Name: GI50 (µM)

{"columns": ["Compound", "Quantity Name", "Bound Type", "Test Result"],
 "data": [
  ["O=C(O)C(F)(F)F.O=C(O)C(F)(F)F.O=C1c2ccccc2-c2c1c1ccccc1c(=O)n2CCCNCCCNCCCn1c2c(c3ccccc3c1=O)C(=O)c1ccccc1-2 [Compound 14g]", "GI50", "=", 0.042],
  ["CC(C)(C)OC(=O)N(CCCn1c2c(c3ccccc3c1=O)C(=O)c1ccccc1-2)CCN(CCCn1c2c(c3ccccc3c1=O)C(=O)c1ccccc1-2)C(=O)OC(C)(C)C [Compound 13b]", "GI50", "=", 45.7],
  ["CC(C)(C)OC(=O)N(CCCN(CCn1c2c(c3ccccc3c1=O)C(=O)c1ccccc1-2)C(=O)OC(C)(C)C)CCn1c2c(c3ccccc3c1=O)C(=O)c1ccccc1-2 [Compound 13a]", "GI50", ">", 50.1]
]}

###

- System: colon HCT-116
- Assay Overview: COMPARE screening (NCI human cancer cell line screen), cytotoxicity GI50
- Type: cell-based
Quick reference for log10(GI50) among some compounds
Quantity Name: log10(GI50) (log10 of the value in nM)

{"columns": ["Compound", "Test Result"],
 "data": [
  ["CN(C)CCCn1c2c(c3ccc([N+](=O)[O-])cc3c1=O)C(=O)c1ccccc1-2", 3.81],
  ["COc1cc2c3c(n(CCCn4cccn4)c(=O)c2cc1OC)-c1cc2c(cc1C3=O)OCO2", 3.30],
  ["COc1cc2c3c(n(CCCN4CCNCC4)c(=O)c2cc1OC)-c1cc2c(cc1C3=O)OCO2.Cl.Cl [Compound 5p, Dihydrochloride]", 2.76],
  ["O=C(O)C(F)(F)F.O=C1c2ccccc2-c2c1c1ccccc1c(=O)n2CCCNCCn1c2c(c3ccccc3c1=O)C(=O)c1ccccc1-2 [Compound 14a]", 3.02],
  ["O=C1c2ccccc2-c2c1c1ccccc1c(=O)n2CCCn1ccnc1", 3.15]
]}

###

- System: panel of twelve human tumor cell lines
- Assay Overview: Hollow fiber assay
- Assay type: in vivo
- Design: key: 2 points each time viable cell mass falls ≥50% vs vehicle controls
- Condition Info: Table 4; subcutaneous fibers in athymic nude mice; compounds IP once daily, four doses, two dose levels

{"columns": ["Compound", "Target", "SC score"],
 "data": [
  ["O=C(O)C(F)(F)F.O=C(O)C(F)(F)F.O=C1c2ccccc2-c2c1c1ccccc1c(=O)n2CCNCCCNCCn1c2c(c3ccccc3c1=O)C(=O)c1ccccc1-2 [Compound 14d]", "panel of twelve human tumor cell lines", 4],
  ["O=C(O)C(F)(F)F.O=C(O)C(F)(F)F.O=C1c2ccccc2-c2c1c1ccccc1c(=O)n2CCCNCCCNCCCn1c2c(c3ccccc3c1=O)C(=O)c1ccccc1-2 [Compound 14g]", "panel of twelve human tumor cell lines", 6],
  ["O=C(O)C(F)(F)F.O=C(O)C(F)(F)F.O=C1c2ccccc2-c2c1c1ccccc1c(=O)n2CCCNCCCCNCCCn1c2c(c3ccccc3c1=O)C(=O)c1ccccc1-2 [Compound 14h]", "panel of twelve human tumor cell lines", 4],
  ["CC(=O)O[C@H]1C(=O)[C@@]2(C)[C@H]([C@H](OC(=O)c3ccccc3)[C@]3(O)C[C@H](OC(=O)[C@H](O)[C@@H](NC(=O)c4ccccc4)c4ccccc4)C(C)=C1C3(C)C)[C@]1(OC(C)=O)CO[C@@H]1C[C@@H]2O [Paclitaxel, paclitaxel, reference compound]", "panel of twelve human tumor cell lines", 8],
  ["O=C(O)C(F)(F)F.O=C(O)C(F)(F)F.O=C(O)C(F)(F)F.O=C1c2ccccc2-c2c1c1ccccc1c(=O)n2CCNCCNCCNCCn1c2c(c3ccccc3c1=O)C(=O)c1ccccc1-2 [Compound 14i]", "panel of twelve human tumor cell lines", 6]
]}
